experiment: log P determination by HPLC (EEC Directive 79/831 Annex V.A8, gradient method); type: physicochemical
value type: Physical data: logP

Record excerpt, results attached:
**Query** Name the recorded Physical data: logP for CC(NC(=O)/C=C/c1c(-c2cccnc2Cl)nc2sc(C(F)(F)F)nn12)C(F)(F)F (racemic) .
**Result** 2.76

**Query** Continue with Cc1csc2nc(-c3ccccc3Cl)c(/C=C/C(=O)Nc3ccc(Cl)cc3)n12
**Result** 3.24

[P] O=C(C=Cc1c(-c2ccccc2Cl)nc2sc(C(F)(F)F)nn12)NC(c1ccc(F)cc1)C(F)(F)F (stereo not shown)
[Q] COc1ccc(-c2nc3sc(C(F)(F)F)nn3c2/C=C/C(=O)NC(C)c2ccccn2)cc1OC (stereo not shown)
**Query** Between item P and item Q , which reported Physical data: logP is smaller? Let me know the label of the one you choose.
**Result** Q
(Q: 2.16, P: 4.34)

* * *

test: log P determination by HPLC (EEC Directive 79/831 Annex V.A8, gradient method); assay type: physicochemical
value type: Physical data: logP

**Query** Name the recorded Physical data: logP for Cc1csc2nc(-c3ccccc3Cl)c(/C=C/C(=O)NC3CCCCC3)n12 .
**Result** 2.74

**Query** Continue with CC(C)NC(=O)/C=C/c1c(-c2ccccc2Cl)nc2scc(-c3ccccc3)n12
**Result** 2.77

**Query** Continue with CC(C)NC(=O)/C=C/c1c(-c2ccccc2Cl)nc2sc(Br)cn12
**Result** 3.82

**Query** Continue with CC(C)C(NC(=O)C=Cc1c(-c2sccc2Cl)nc2sc(C(F)(F)F)nn12)C(F)(F)F (centres unmarked)
**Result** 4.23

**Query** Continue with COCc1nn2c(/C=C/C(=O)NC3CCC3)c(-c3ccccc3Cl)nc2s1
**Result** 2.59

**Query** Continue with Cc1cn2c(C=CC(=O)NC(C(C)C)C(F)(F)F)c(-c3ccccc3Cl)nc2s1 (centres unmarked)
**Result** 3.45

**Query** Continue with COCc1nn2c(/C=C/C(=O)NCC(F)(F)C(F)(F)C(F)(F)F)c(-c3ccccc3Cl)nc2s1
**Result** 3.59

**Query** Continue with COCc1nn2c(/C=C/C(=O)NC3CCCCC3)c(-c3ccccc3Cl)nc2s1
**Result** 3.12

* * *

assay: log P determination by HPLC (EEC Directive 79/831 Annex V.A8, gradient method); type: physicochemical; conditions: HPLC, gradient method, acetonitrile/0.1% strength aqueous phosphoric acid or formic acid; read-out: Physical data: log P
value type: chromatographic logP

**Query** Name the recorded chromatographic logP for CC(C)(C)NC(=O)/C=C/c1c(-c2ccc(Cl)cc2Cl)nc2sc(C(F)(F)F)nn12 .
**Result** 4.32

**Query** Continue with C[C@@H](NC(=O)/C=C/c1c(-c2ccc(F)cc2Cl)nc2sc(C(F)(F)F)nn12)C(F)(F)F
**Result** 3.77

**Query** Continue with O=C(/C=C/c1c(-c2ccccc2Cl)nc2sc(C(F)(F)F)nn12)N1CCOCC1
**Result** 2.79

**Query** Continue with CC(NC(=O)/C=C/c1c(-c2ccc(F)cc2Cl)nc2sc(C(F)(F)F)nn12)C(F)(F)F (centres unmarked)
**Result** 3.79

**Query** Continue with CCN(CC)C(=O)/C=C/c1c(-c2ccc(Cl)cc2Cl)nc2sc(C(F)(F)F)nn12
**Result** 4.18

**Query** Continue with COCC(C)NC(=O)/C=C/c1c(-c2ccc(F)cc2Cl)nc2sc(C(F)(F)F)nn12 (centres unmarked)
**Result** 3.11

**Query** Continue with CC(NC(=O)/C=C/c1c(-c2ccc(Cl)cc2Cl)nc2sc(C(F)(F)F)nn12)C(F)(F)F (centres unmarked)
**Result** 4.23

**Query** Continue with O=C(/C=C/c1c(-c2ccc(F)cc2Cl)nc2sc(C(F)(F)F)nn12)NCC(F)(F)F
**Result** 3.51
